# Test: yeast display, Sf9 membrane polyspecificity reagent, FACS + sequencing; frameworks hold sequencing errors
Observation type: polyreactivity (PSR sort gate)

1. QVQLVESGGGLVQAGGSLRLSCAASGLIFSEYAMGWYRQAPGKERELDAAIRSDGGSTYYADSVKGRFTISRDNAKNTVYLQMNSLKPEDTAVYYCNDRHRSQTRTAMNYWGQGTIVTVSS    high polyreactivity
2. QVQLVESGGGLVQAGGSLRLSCAASGFTLARYAMGWYRQATGKERELVAAITKRGGSTYYADSVKGRFTISRDNAMNTVYLQMNSLKPEDTAVYYCATYKRSSHYDYWGQGTQVTVSS    high polyreactivity

====

# Test: yeast display, Sf9 membrane polyspecificity reagent, FACS + sequencing; frameworks hold sequencing errors
Observation type: polyreactivity (PSR sort gate)

1. QVQLVESGGGLVQAGGSLRLSCAASGLIFSVYVMGWYRQAPGKERELVAGITTGGSTKYADSVKGRFTISRDNAKNTVYLQMNSLKPEDTSVYYCAVGKYNYRGSWDYYWGQGTQVTVSS    high polyreactivity
2. QVQLVESGGGLVQAGGSLRLSCAASGFIFYQYAKGWYRQAPGKERELVATISFRGGRTYYADSVKGRFTITRDTAKNTVYLQMNSLKPDETAVYYCNAKRVSSRFYKWDYYWGQGTQVTVSS    high polyreactivity
3. QVQLVESGGGLVQAGGSLRLSCAASGNILSVNAMGWYRQAPGKERELVASIRSSTASTYYADSVKGRFTISRDNAKNTVYLQMNSLKPEDTAVYYCAARARYNRYDYWGQGTQVTVSS    high polyreactivity
4. QLQLVESGGGLVQAGGSLRLSCAASGRIFVANTMGWYRQAPGKERELVAAISRGSTYYADSVKGRFTISRDNAKNTVYLQMKSLKPEDTAVYYCAVKLAYGYYYWGLGTQVTVSS    high polyreactivity
5. QVQLVESGGGLVQAGGSLRLSCAASGSTVVIKAMGWYRQAPGKERELVARISSSGGRTYYADSVKGRFTISRDNAKNTVYLQMNSLKPEDTAVYYCAKRGYLFLRGSVRVGYNYWGQGTQVTVSS    low polyreactivity

Which polyreactivity (PSR sort gate) is reported for this sequence? QVQLVESGGGLVQAGGSLRLSCAASGSTLARYAMGWYRQAPGKERELVAAISWIGGSTYYADSVKGRFTISRDNAKNTVYLQMNSLKPEDTAVYFCAKDTYPWYIRNRYDYWGQGSQVTVSS
high polyreactivity

====

# Test: yeast display, Sf9 membrane polyspecificity reagent, FACS + sequencing; frameworks hold sequencing errors
Observation type: polyreactivity (PSR sort gate)

1) QVQLVESGGGLVQAGGSLRLSCASSGRTFPAYVMGWYREAPGKERDLVAAISRGGSTYYADSVKGRFTISRDNAKNTVYFQMNSLKPEDTAVFYCAARWSYSRYTGNDYSRLGKFYYWGQGTQVTVSS    high polyreactivity
2) QVQLVESGGGLVQAGGSLRLSCAASGFTFYTNAMGWYRQARGQERELVAAISSSGGRTYYADSVKGRFTISRDNAKNTVYLQMNSLKPEDTAVYYCNAYFTRSFSYIYWGQGTQVTVSS    high polyreactivity
3) QVQLVESGGGLVQAGGSLRLSCAASGLILSDYVMGWYRQAPGKEREFVAAITSTGGSTYYADSVKGRFTISRDNAKNTVYLQMNSLKPEDTAVYYCAVRIHFPFPRRYYYWGQGTQVTVSS    high polyreactivity

====

# Test: yeast display, Sf9 membrane polyspecificity reagent, FACS + sequencing; frameworks hold sequencing errors
Observation type: polyreactivity (PSR sort gate)

1) QVHLVESGGGLVQAGGSLRLSCAASGSTFWKYVMGWYILAPGKERELVAAITSRGGSTYADSVKGRFTISRDNAKNTVYLQMNSLKTEDTAVYYCAATKFWYYGYDYWGQGTQVTVSS    low polyreactivity
2) QVQLVESGGGLVQAGGSLRLSCAASGRIFYLYAMGWYRQAPGKERELVAAISWGGGSTYYADSVKGRFTISRDNAKNTVYLQMNSLKPEDTAVYYCAAAVTTWVEYDYWGQGTQVTVSS    low polyreactivity
3) QVQLVESGGGLVQAGGSLRLSCAASGTFSQYAMGWYRQAPGKERQLVAAISQGGGSTYYADSVKGRFTISRDNAKNTVYLQMNSLKPEDTAVYYCARSRSYWGIVYGRYDYWGQGTQVTVSS    high polyreactivity
4) QVQLVESGGGLVQAGGSLRLSCAASGFTFYGYAMGWYRQAPGKERELVAAINSGAITNYADSVKGRFTISRDNAKNTVYLQMNSLKPEDTAVYYCAASYRRLTGVGADEYWGQGTQVTVSS    high polyreactivity
5) QVQLVESGGGVVQAGGSLRLSCAASGRIFSVYAMVWYRQAPGKEREFVGSISWRGGRTYYADSVKGRFTISRDNAKNTVYLQMISLKPEDTAVYYCAAVSYPAVYGFDYWGQGTQVTVSS    high polyreactivity

Which polyreactivity (PSR sort gate) is reported for this sequence? QVQLVESGGGLVQAGGSLRLSCAASGLILNYYTMGWYRQAPGKERELVATISSSTGSTYYADSVKGRFTISRDNAKNTVYLQMNSLKPEDTAVYYCAADHWSYWQIYDFWGQGTQVTVSS
low polyreactivity

// repeat for QVQLVESGGGLVQAGGSLRLSCAASGGIFIVNAMGWYRPAPGKERELVAAITLSGGSTYYADSVKGRFTISRDNAKNTVYFQMNSLKPEDTAVYYCNKDYYPGSYDYWGQGTQVTVSS and report
low polyreactivity

// repeat for QVQLVESRGGLVQAGGSLRLSCAASGYILWRYAMGWYRQAPGKERELVASISSGVSTNYADSVKGRFTISRDNAKNTVYLQMYSLKPEDTAVYYCKTGRWLLGSMEYWGQGTEVTVSS and report
low polyreactivity

// repeat for QVQLVESGGGLVQAGGSLRLSCAASGSIFKYYAMGWYRQAPGKERELVAAISSSGGSTYYADSVKGRFTISRDYAKYTVYCQMNSLKPQDTAVYYCNTPYIWKNYDYWGQGSQVTVSS and report
high polyreactivity

// repeat for QVQLVESGGGLVQAGGSLRLSCAASGSIFGHYAMGWYRPAPGKERELVAGISSSSGGRTYYADSVKGRFTISRDNAKNTVYLQMNSLKPEDTAVDYCAAVYSVQVSRRAKYYYWGQGTQVTVSS and report
high polyreactivity

// repeat for QVQLVESGGGLVQAGGSLRLSCAASGSTFYLNAMGSYRQAPGKERELVAAISSGGRTYYADSVKGRFPISRDNAKNTDYLQMNSLKPEDTAVYYCNAVRYLRGAYNYWGQGTQVTVSS and report
high polyreactivity

====

# Test: yeast display, Sf9 membrane polyspecificity reagent, FACS + sequencing; frameworks hold sequencing errors
Observation type: polyreactivity (PSR sort gate)

// known answers, use as guide
1. QVQLVESGGGLVQAGGSLRLSCAASGITFSYYAMGWYRQAPGKERELVAAISWSGGTTYYADSVKGRFTISRDNAKNTVYLQMNSLKPEDTAVYYCAADGGAVGSDYWGQGTQVTVSS    high polyreactivity
2. QVQLVETGGGLVQAGGSLRLSCAASGSTFKGYAMGWYRQSPGKERELVAAISRSGTRTYYADSVKGRFTISRDNAKNTVYLQMNSLKPEDTAVSFCNKDTGYIAHDNENGRDYWGQGTQVTVSS    low polyreactivity
3. QVQLVESGGGLVQAGGSLRLSCAASGRIFSYNAMGWYRQAPGKERELVASISWSGGRTYYADSVKGRFTISRDNAKNTVYLQMNSLKPEDTAVYYCNAAYYTRVWGYDYWGQGTQVTVSS    high polyreactivity
4. QVQLVESGGGLVQSGGSLRLSCAASGSTFSRYVMGSYRQAPGKERELVAAITNTGSTYYADSVKGRFTISRDNAKNTVYLQMNSLKPEDTAVYYCAATQYRSDGWRYDYWGQGTQVTVSS    high polyreactivity
5. QVQLVESGGGLVQAGGSLRLSCAASGSTFAKYAMGWYRQAPGKERELVASIRLSGGSTYYADSVKGRFTISRDNAKNTVYLQMNSLKPEDTAVYYCNKPFPYYPDGPNGYDYWGQGTQVTVSS    low polyreactivity
6. QVQLVESGGGLVQAGGSLRLSCAASGSTFPLYAMGWYRQAPGKEREMVAAITGGGGRTYYADSVKGRFTISRDNAKNTVYLQMNSLKPEDTAVYYCNAVVYLTNYWYDYWGQGTQVTVSS    low polyreactivity

Which polyreactivity (PSR sort gate) is reported for this sequence? QVHLVESGGGLVQAGGSLRLSCAASGFIFAGYTMGWYRQAPRKERELVAAINSGGSTKYADSVKGRFTISRDNAKNTVYLQMNSLKPEDTAVSYCNADYGWYFLFDYWGQGTQVTVSS
low polyreactivity

// repeat for QVQLVESGGGLVQAGRSLLLICAASGSTFAYYAMGWYRQAPGKERELVAAINYRATRTYYADSVKGRFTISRDNAKNTVYLQMNSLKPDDTAVDYCIAEPAYYRSNRWPRFEYWGQGTQVTVSS and report
high polyreactivity

// repeat for QVQLVESVGGLFQAGGSIRLSCAASGRTFFVYAMGWYRQAPGKERVLVAVISFTVDSTFYEDSVKGRFTISRDNAKNTVYLQMNSLKPEDTAVYYCAADVRRVFSKYSYYLYFDLDYWGQGTQVTVSS and report
low polyreactivity

// repeat for QVQLVESGGGLVQAGGSLRLSCAASGRTFYRYAMGWYRQAPGKERELVARITSGSSTNYADSVKGRFTISRDNAKNTVYLQMNSLKPEDTAVYYCAKDPRPYLDYDYWGQGTQVTVSS and report
low polyreactivity

// repeat for QVQLVESGGGLVQAGGSLRLSCAASGSIFGLNAMGWYRQAPGKERELVAAINSDGDTYYADSVKGRFTISRDNAKNTVCLQMNSLKPEDTAVYYCAALQRRDHNGDYWGQGTQVTVSS and report
low polyreactivity

// repeat for QVQLVESGGGLVQAGGSLRLSCAASGLIFVKYARGWYRQAPGKEREFVAAITRSGGTTYYADSVKGRFTISRDNAKNPVYLQMNSLKPEDTAVYYCAAGVVIYFFGGGDYWGQGPQVTVSS and report
low polyreactivity
